In this section, each of the sequences is paired with its reported shrunken log2 fold change.
Test system: Escherichia coli TOP10
METHOD SUMMARY: shrunken log2 fold change of peptide-encoding DNA abundance (4.5 h post-induction vs induction); higher = less antimicrobial activity (less host growth inhibition)
MEASUREMENT CONDITIONS: time post-induction: 4.5 h; library: site-saturation at positions 5, 18, 19, 20

Guide cases for shrunken log2 fold change, answers given:
>>> measured("RRIRHRPPRLPRPRPRPMRPPRP")
0.36
>>> measured("RRIRRRPPRLPRPRPRPKADPRP")
0.198
>>> measured("RRIRTRPPRLPRPRPRPPWFPRP")
0.0438

Exercise: What value of shrunken log2 fold change on Escherichia coli TOP10 does `RRIRARPPRLPRPRPRPYPIPRP` have?
Key: -0.249

Exercise: Lookup: shrunken log2 fold change / Escherichia coli TOP10 / `RRIRKRPPRLPRPRPRPKKVPRP`
Key: -0.0126

Exercise: Checklist item: shrunken log2 fold change tested on Escherichia coli TOP10, entry `RRIRIRPPRLPRPRPRPTCRPRP` , value?
Key: -0.103

Exercise: Test system Escherichia coli TOP10; read-out shrunken log2 fold change; what value for `RRIRIRPPRLPRPRPRPYYAPRP` ?
Key: -0.949

Exercise: Checklist item: shrunken log2 fold change tested on Escherichia coli TOP10, entry `RRIRHRPPRLPRPRPRPLISPRP` , value?
Key: -0.387

Exercise: Fill in the recorded shrunken log2 fold change for this sequence, with Escherichia coli TOP10 as test system: `RRIRIRPPRLPRPRPRPNDQPRP`
Key: -0.43

Exercise: Request body: readout shrunken log2 fold change, system Escherichia coli TOP10, query `RRIRGRPPRLPRPRPRPKNHPRP` . Return the value.
Key: 0.179

Exercise: Form field - read-out: shrunken log2 fold change; system: Escherichia coli TOP10; submitted item: `RRIRPRPPRLPRPRPRPTLVPRP`
Key: 0.114

Exercise: Give shrunken log2 fold change (Escherichia coli TOP10) of the following sequence: `RRIRERPPRLPRPRPRPWPCPRP`
Key: 0.151

Exercise: Lookup: shrunken log2 fold change / Escherichia coli TOP10 / `RRIRRRPPRLPRPRPRPSSMPRP`
Key: -0.143

Exercise: For Escherichia coli TOP10, provide shrunken log2 fold change of `RRIRWRPPRLPRPRPRPAQCPRP` please.
Key: -0.00191

###

Tested on: Escherichia coli TOP10;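 further: peptides expressed intracellularly from a pBAD plasmid library in pooled LB shake-flask culture, induced with 0.3% L-arabinose, DNA abundance read by NGS, three biological replicates, DESeq2 with apeglm shrinkage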
METHOD SUMMARY: shrunken log2 fold change of peptide-encoding DNA abundance (4.5 h post-induction vs induction); higher = less antimicrobial activity (less host growth inhibition)
MEASUREMENT CONDITIONS: time post-induction: 4.5 h; library: site-saturation at positions 5, 18, 19, 20
Assign fulfilled to entries whose shrunken log2 fold change meets or exceeds -0.02; assign not fulfilled to the rest.

>>> classification("RRIRARPPRLPRPRPRPYWTPRP")
"not fulfilled"
>>> classification("RRIRERPPRLPRPRPRPLGSPRP")
"not fulfilled"
>>> classification("RRIRWRPPRLPRPRPRPLDHPRP")
"fulfilled"
>>> classification("RRIRFRPPRLPRPRPRPWRPPRP")
"fulfilled"
>>> classification("RRIRHRPPRLPRPRPRPSYHPRP")
"not fulfilled"
>>> classification("RRIRIRPPRLPRPRPRPPQPPRP")
"fulfilled"
>>> classification("RRIRMRPPRLPRPRPRPQAQPRP")
"fulfilled"
>>> classification("RRIRYRPPRLPRPRPRPTNDPRP")
"not fulfilled"

Exercise: Does the reported shrunken log2 fold change for `RRIRTRPPRLPRPRPRPNLWPRP` fall at or above the -0.02 mark?
Key: not fulfilled

Exercise: API: above_or_equal(metric=shrunken log2 fold change, cutoff=-0.02) for item `RRIRLRPPRLPRPRPRPYIQPRP`
Key: not fulfilled

Exercise: Assess whether reported shrunken log2 fold change for `RRIRGRPPRLPRPRPRPVMDPRP` sits at -0.02 or higher.
Key: fulfilled

Exercise: Decide: shrunken log2 fold change of `RRIRTRPPRLPRPRPRPWMVPRP` >= -0.02?
Key: not fulfilled
